Item-by-item account of residence time
target-or-test-system: PRC2 containing wt EZH2 (Homo sapiens (Human))
Sequence (Q15910 whole entry): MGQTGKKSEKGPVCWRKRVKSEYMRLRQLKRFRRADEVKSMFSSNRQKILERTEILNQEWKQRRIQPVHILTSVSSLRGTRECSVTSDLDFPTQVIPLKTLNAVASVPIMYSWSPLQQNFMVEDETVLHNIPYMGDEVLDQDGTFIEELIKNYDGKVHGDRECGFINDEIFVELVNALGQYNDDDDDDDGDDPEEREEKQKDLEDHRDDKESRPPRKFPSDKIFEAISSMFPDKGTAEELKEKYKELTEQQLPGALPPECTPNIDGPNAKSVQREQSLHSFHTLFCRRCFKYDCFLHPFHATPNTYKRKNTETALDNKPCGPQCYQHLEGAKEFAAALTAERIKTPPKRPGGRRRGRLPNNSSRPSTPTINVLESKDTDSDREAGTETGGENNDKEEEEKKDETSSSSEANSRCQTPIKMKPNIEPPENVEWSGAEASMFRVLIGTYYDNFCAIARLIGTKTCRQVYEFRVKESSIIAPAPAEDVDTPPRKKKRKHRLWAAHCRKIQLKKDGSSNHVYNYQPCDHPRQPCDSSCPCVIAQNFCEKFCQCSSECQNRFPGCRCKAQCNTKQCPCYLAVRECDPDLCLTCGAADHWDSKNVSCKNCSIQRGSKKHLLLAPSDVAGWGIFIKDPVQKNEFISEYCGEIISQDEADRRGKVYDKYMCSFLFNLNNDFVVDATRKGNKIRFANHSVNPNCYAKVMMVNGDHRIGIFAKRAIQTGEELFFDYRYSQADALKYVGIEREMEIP
Sequence (O75530 whole entry partner): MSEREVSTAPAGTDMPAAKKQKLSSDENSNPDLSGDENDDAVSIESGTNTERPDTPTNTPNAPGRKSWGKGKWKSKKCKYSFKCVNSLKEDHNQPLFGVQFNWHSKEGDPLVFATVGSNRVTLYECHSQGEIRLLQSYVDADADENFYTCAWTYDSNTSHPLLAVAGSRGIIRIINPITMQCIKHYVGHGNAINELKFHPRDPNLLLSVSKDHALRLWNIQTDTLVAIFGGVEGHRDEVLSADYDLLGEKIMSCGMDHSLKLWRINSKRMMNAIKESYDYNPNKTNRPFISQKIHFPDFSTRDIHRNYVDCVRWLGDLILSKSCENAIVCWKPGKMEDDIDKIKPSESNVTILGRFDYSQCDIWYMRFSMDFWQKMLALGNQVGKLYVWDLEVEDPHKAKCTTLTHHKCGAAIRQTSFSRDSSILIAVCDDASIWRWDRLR
Sequence (Q15022 whole entry partner): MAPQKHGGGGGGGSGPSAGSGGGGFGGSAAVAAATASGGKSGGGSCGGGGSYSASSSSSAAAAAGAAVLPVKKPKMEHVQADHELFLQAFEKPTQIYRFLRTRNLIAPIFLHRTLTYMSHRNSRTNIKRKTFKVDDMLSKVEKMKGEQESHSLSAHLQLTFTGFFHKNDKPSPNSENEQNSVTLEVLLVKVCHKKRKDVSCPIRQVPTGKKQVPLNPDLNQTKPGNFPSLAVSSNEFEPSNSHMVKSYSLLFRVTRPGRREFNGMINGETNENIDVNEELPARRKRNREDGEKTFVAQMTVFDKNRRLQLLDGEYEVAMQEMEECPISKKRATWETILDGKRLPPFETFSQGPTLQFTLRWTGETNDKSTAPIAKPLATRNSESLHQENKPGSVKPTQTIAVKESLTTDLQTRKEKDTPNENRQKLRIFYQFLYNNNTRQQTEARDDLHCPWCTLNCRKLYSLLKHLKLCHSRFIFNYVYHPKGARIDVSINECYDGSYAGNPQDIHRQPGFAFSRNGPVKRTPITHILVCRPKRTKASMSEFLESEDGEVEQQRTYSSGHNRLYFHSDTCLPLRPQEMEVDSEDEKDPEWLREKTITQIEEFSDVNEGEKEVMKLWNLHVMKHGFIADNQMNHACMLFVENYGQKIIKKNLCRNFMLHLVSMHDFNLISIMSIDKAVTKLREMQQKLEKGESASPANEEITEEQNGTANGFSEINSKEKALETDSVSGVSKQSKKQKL
Sequence (Q09028 whole entry partner): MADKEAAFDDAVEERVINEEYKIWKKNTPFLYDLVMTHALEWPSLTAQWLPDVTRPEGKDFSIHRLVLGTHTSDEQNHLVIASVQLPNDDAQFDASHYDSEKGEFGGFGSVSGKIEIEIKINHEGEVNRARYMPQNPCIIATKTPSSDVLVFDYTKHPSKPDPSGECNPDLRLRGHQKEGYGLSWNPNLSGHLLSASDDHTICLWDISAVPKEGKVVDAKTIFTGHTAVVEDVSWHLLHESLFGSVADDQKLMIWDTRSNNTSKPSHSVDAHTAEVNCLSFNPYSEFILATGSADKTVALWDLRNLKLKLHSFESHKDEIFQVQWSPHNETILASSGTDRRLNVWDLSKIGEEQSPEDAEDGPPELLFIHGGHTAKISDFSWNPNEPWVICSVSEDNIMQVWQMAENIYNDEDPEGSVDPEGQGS
Sequence (Q6ZN18 whole entry partner): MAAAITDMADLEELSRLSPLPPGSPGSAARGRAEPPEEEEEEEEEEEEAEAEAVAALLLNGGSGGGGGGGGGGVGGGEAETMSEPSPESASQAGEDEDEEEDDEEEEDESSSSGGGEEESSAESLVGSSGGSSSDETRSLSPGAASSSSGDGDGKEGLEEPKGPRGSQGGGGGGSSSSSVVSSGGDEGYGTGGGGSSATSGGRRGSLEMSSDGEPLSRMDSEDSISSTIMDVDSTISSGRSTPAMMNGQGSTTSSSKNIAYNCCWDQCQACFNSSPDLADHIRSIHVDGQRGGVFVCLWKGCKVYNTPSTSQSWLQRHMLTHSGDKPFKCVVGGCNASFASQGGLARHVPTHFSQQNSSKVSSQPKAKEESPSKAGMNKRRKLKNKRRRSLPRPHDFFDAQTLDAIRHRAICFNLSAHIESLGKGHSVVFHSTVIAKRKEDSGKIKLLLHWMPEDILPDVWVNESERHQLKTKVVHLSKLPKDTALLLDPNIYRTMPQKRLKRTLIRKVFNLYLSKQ
protocol-description: EZH2 residence time assay (100-fold dilution of pre-formed enzyme-inhibitor complex)
Assay type: biochemical

compound: COC1CN(C2CCC([C@@H](C)n3c(C)c(C(=O)NCc4c(Cl)cc(C)[nH]c4=O)c4ccccc43)CC2)C1 (single isomer, unassigned)
test-value: 30 to 300 min

Could you now look at the following compound, please?
Enquiry: Any idea what its residence time is? The compound is CCSc1cc(C)[nH]c(=O)c1CNC(=O)c1c(C)n([C@H](C)C2CCN(CC(F)(F)F)CC2)c2ccccc12 [drawing 265]
Return: < 30 min

###

Item-by-item account of EC50
Tested on: H3K27me3 mark in HeLa cells (EZH2)
protocol-description: H3K27me3 Alpha Hela Assay (AlphaLISA)
Format: cell-based
experimental-setup: HeLa cells, 72 hrs; read-out: EZH2 Cell H3K27me3 Alpha HeLa (EC50 K27me3)

compound: CSc1cc(C)[nH]c(=O)c1CNC(=O)c1c(C)n([C@H](C)C2CCC(NC3COC3)CC2)c2ncccc12 (single isomer, unassigned) [62 (isomer 1)]
target-or-test-system: H3K27me3 mark in HeLa cells (EZH2)
EC50: 10 to 100 nM

Enquiry: Missing value: EC50, H3K27me3 mark in HeLa cells (EZH2), entry CSc1cc(C)[nH]c(=O)c1CNC(=O)c1c(C)n([C@H](C)C2CCC(N3CC(S(C)(=O)=O)C3)CC2)c2ccccc12 (single isomer, unassigned) [162 (isomer 1)] . Fill in?
Return: 10 to 100 nM

Enquiry: Missing value: EC50, H3K27me3 mark in HeLa cells (EZH2), entry CSc1cc(C)[nH]c(=O)c1CNC(=O)c1c(C)n([C@H](C)C2CCC(NC3(C(F)(F)F)COC3)CC2)c2ncccc12 (single isomer, unassigned) [163 (isomer 2)] . Fill in?
Return: 10 to 100 nM

Enquiry: Missing value: EC50, H3K27me3 mark in HeLa cells (EZH2), entry CSc1cc(C)[nH]c(=O)c1CNC(=O)c1c(C)n([C@H](C)C2CCC(N3CC[C@@H](F)C3)CC2)c2ccccc12 (single isomer, unassigned) [79 (isomer 2)] . Fill in?
Return: 10 to 100 nM

Enquiry: Missing value: EC50, H3K27me3 mark in HeLa cells (EZH2), entry CSc1cc(C)[nH]c(=O)c1CNC(=O)c1c(C)n([C@H](C)[C@H]2CC[C@H](NC3(C)COC3)CC2)c2ccccc12 (single isomer, unassigned) [1 (isomer 2)] . Fill in?
Return: 10 to 100 nM

###

System: H3K27me3 mark in HeLa cells (EZH2)
protocol-description: H3K27me3 Alpha Hela Assay (AlphaLISA)
Format: cell-based
experimental-setup: HeLa cells, 72 hrs; read-out: EZH2 Cell H3K27me3 Alpha HeLa (EC50 K27me3)
property-measured: EC50

Enquiry: Any idea what its EC50 is? The molecule is CSc1cc(C)[nH]c(=O)c1CNC(=O)c1c(C)n([C@H](C)C2OCC(NC(C)(C)C)CO2)c2ccccc12 (single isomer, unassigned) [5 (isomer 2)]
Return: < 10 nM

Enquiry: Any idea what its EC50 is? The molecule is CSc1cc(C)[nH]c(=O)c1CNC(=O)c1c(C)n([C@H](C)C2CCC(N(C)C)CC2)c2ncccc12 (single isomer, unassigned) [51 (isomer 1)]
Return: 10 to 100 nM

Enquiry: Any idea what its EC50 is? The molecule is CSc1cc(C)[nH]c(=O)c1CNC(=O)c1c(C)n([C@H](C)C2CCC(Oc3cnn(C)c3)CC2)c2ncccc12 (single isomer, unassigned) [147 (isomer 2)]
Return: < 10 nM

Enquiry: Any idea what its EC50 is? The molecule is CSc1cc(C)[nH]c(=O)c1CNC(=O)c1c(C)n([C@H](C)C2CCC(OC(=O)C(C)C)CC2)c2ccccc12 (single isomer, unassigned) [144 (isomer 2)]
Return: < 10 nM

Enquiry: Any idea what its EC50 is? The molecule is COC1CCC([C@@H](C)n2c(C)c(C(=O)NCc3c(SC)cc(C)[nH]c3=O)c3ccccc32)CC1 (single isomer, unassigned) [18 (isomer 2)]
Return: < 10 nM
